This section presents molecules with their documented growth values.
Test system: T-47D breast
Experiment: NCI-60 one-dose screen, 48 h (100 = growth as untreated, 0 = no growth, -100 = all killed)
Details: 10 µM unless noted
The panel holds about 83,000 compounds, 20% with a hit somewhere; the sample as a whole holds those more often.
Give a bare numeral; the unit % is implied.

Examples with their reported growth follow.
> print(dat)
                                   molecule  reported.value
1  N#Cc1nc(-c2ccccc2)oc1S(=O)(=O)NCC(c1ccc(Cl)cc1)N1CCCCC1 (stereo unspecified)            65.1
2  O=C1CC23OC4ON=C(Br)C4C2C(O)c2ccccc2N13 (stereo unspecified)             100
3  c1ccc(-c2n(Cc3ccc4ccccc4n3)cc[n+]2Cc2ccc3ccccc3c2)cc1           -14.7

Give the value of growth reported for the following: CCCCCCC/C=C/[C@H]1O[C@]23C(=O)C[C@@]4(C[C@@H](OC5OC(CO)C(O)C(O)C5O)C[C@@H]4[C@H]2C=C1C)OC3=O (stereo partly specified) 25.2

Tell me growth reported for CCCn1c2cc(OCc3cn(-c4ccc(Br)cc4)nn3)ccc2c2ccnc(C)c21 66.6

Consider the molecule COC(=O)c1ccc(NC(=O)CSc2nc(-c3ccc(F)cc3)nc3ccccc23)cc1 and give its recorded growth. 67.7

---

Tested on: BT-549 breast
Assay: NCI-60 one-dose screen, 48 h (100 = growth as untreated, 0 = no growth, -100 = all killed)
Settings: 10 µM unless noted
Method: Growth inhibition of the BT-549 human tumor cell line is measured as a screen for anti-cancer activity. Cells are grown in 96 well plates and exposed to the test compound for 48 hours. Compounds are tested at a single concentration, which is 10^-5 M for most compounds. The reported endpoint is percent growth (GI% or GIPRCNT), where numbers from 0 - 100% represent growth inhibition, and numbers from -100% - 0 represent cell death. For example, a value of 40 represents 60% growth inhibition. […]
Compounds without any hit were thinned out: in the full panel of roughly 83,000, 20% have a hit. Activity calls are given as the source filed them. Rule for the calls: active = growth percent below 10; inactive = the rest.
property_name: growth

> print(dat)
                                   molecule  property.name    reported.value
1  COc1cc(/C=N/Nc2nc(-c3ccc(F)cc3)c(C#N)c(N3CCOCC3)n2)ccc1O         growth  94.3% (inactive)
2  COC(=O)/C=C1\SC(=Nc2ccc(C(F)(F)F)cc2)N(CCc2c[nH]c3ccccc23)C1=O         growth   -21.8% (active)
3                           Sc1cccc2cccnc12         growth  48.4% (inactive)
4  C=C1C(=O)O[C@H]2[C@H]1CC/C(COC(=O)c1cccnc1N)=C\CC[C@@]1(C)O[C@@H]21         growth   -37.2% (active)
5                      CN(C)CSc1nc2ccccc2s1         growth  81.1% (inactive)
6        Cc1cccc(C)c1Nc1nnc(-c2ccc(F)cc2)o1         growth   107% (inactive)

Give the measured growth for C=C(C)[C@@H]1CC[C@]2(C(=O)n3ccnc3)CC[C@]3(C)[C@H](CC[C@@H]4[C@@]5(C)CCCNC(C)(C)[C@@H]5CC[C@]43C)[C@@H]12 40.2% (inactive)

Read off the recorded growth for O=C(CCl)N1CCCc2ccccc21 97.1% (inactive)

Tell us which growth value is on record for O=C1Nc2ccccc2C12C=C(c1ccccc1)Nc1c2c(-c2ccccc2)nn1-c1ccccc1 (stereo not drawn) 70.1% (inactive)
